# SYSTEM: T1, Bzz1-2, P38822
# T1 sequence (P38822 568-633, looked up): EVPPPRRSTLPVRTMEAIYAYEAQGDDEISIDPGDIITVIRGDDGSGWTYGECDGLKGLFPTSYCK
# PROTOCOL: SPOT array
# CONDITION_SUMMARY: median of control spots 4538
The binders listed here are annotated with their SPOT intensity.
Enter the number alone.

            binder  assay_result
0  FPPKRKPLLRPQRSD            28
1  RPVPRRPSQPLNTLS            13

Briefly, SPOT intensity measured for RVRKTHVPASKRPSG : 0

Briefly, SPOT intensity measured for LFMKGTPEFPKSGFS : 0

Briefly, SPOT intensity measured for LKVTPGRRAPTISKI : 1

Briefly, SPOT intensity measured for ISNFVPPNLPMRRFK : 19

Briefly, SPOT intensity measured for RKNRAPPQRPRFNRD : 91
